# Test system: Bacteroides dorei
# PROTOCOL DETAILS: growth AUC relative to DMSO control (median of replicates) (fraction); higher = more growth (less inhibition), active = hit call of the paper
# APPLIED CONDITIONS: 20 µM; 24 h
For each record, write down the corresponding growth AUC.
When you answer, write just the number.

Query: What is its growth AUC for Bacteroides dorei? Entry: COc1cc(OC)nc(NC(=O)NS(=O)(=O)Nc2ccccc2C(=O)C2CC2)n1
Reply: 0.963

Query: What is its growth AUC for Bacteroides dorei? Entry: NC(=O)c1nn(-c2c(Cl)cc(C(F)(F)F)cc2Cl)c(N)c1S(=O)C(F)(F)F (configuration not stated)
Reply: 0.995

Query: What is its growth AUC for Bacteroides dorei? Entry: CN(C)C(N)=O
Reply: 0.982

Query: What is its growth AUC for Bacteroides dorei? Entry: CC(C)C1C2CCC1c1c(NC(=O)c3cn(C)nc3C(F)F)cccc12 (configuration not stated)
Reply: 0.965

Query: What is its growth AUC for Bacteroides dorei? Entry: O=C1NCCN1
Reply: 1.06

Query: What is its growth AUC for Bacteroides dorei? Entry: COC(=O)C(C)Oc1ccc(Cl)cc1C (configuration not stated)
Reply: 1

Query: What is its growth AUC for Bacteroides dorei? Entry: Br[C@@H]1CC[C@@H](Br)[C@@H](Br)CC[C@H](Br)[C@H](Br)CC[C@H]1Br
Reply: 0.985

Query: What is its growth AUC for Bacteroides dorei? Entry: COC(=O)CCCOc1ccc(Cl)cc1Cl
Reply: 0.922

Query: What is its growth AUC for Bacteroides dorei? Entry: CCN(CC)C(=O)SCc1ccccc1Cl
Reply: 1

Query: What is its growth AUC for Bacteroides dorei? Entry: COC(=O)c1ccc(C)cc1C1=NC(C)(C(C)C)C(=O)N1 (racemic)
Reply: 0.975

Query: What is its growth AUC for Bacteroides dorei? Entry: O=C(Nc1ccc(O)cc1-c1ccc(Cl)cc1)c1cccnc1Cl
Reply: 1.03

Query: What is its growth AUC for Bacteroides dorei? Entry: Cc1nn(C)c(F)c1C(=O)Nc1ccccc1C(C)CC(C)C (configuration not stated)
Reply: 0.988

Query: What is its growth AUC for Bacteroides dorei? Entry: CC(C)(C)Nc1nc(N)nc(Cl)n1
Reply: 0.993

Query: What is its growth AUC for Bacteroides dorei? Entry: COc1cc(OC)nc(NC(=O)NS(=O)(=O)Nc2ccccc2C(=O)N(C)C)n1
Reply: 1.02

Query: What is its growth AUC for Bacteroides dorei? Entry: c1ccc2c(c1)-c1cccc3c1c-2cc1ccccc13
Reply: 1.04

Query: What is its growth AUC for Bacteroides dorei? Entry: CCSC(=O)N(CC)CC
Reply: 1.01

Query: What is its growth AUC for Bacteroides dorei? Entry: CC1COc2ccccc2N1C(=O)C(Cl)Cl (configuration not stated)
Reply: 0.876

Query: What is its growth AUC for Bacteroides dorei? Entry: CCN(CC)C(=O)c1cccc(C)c1
Reply: 1.05

Query: What is its growth AUC for Bacteroides dorei? Entry: c1ccc(Sc2ccccc2)cc1
Reply: 1.01

Query: What is its growth AUC for Bacteroides dorei? Entry: CS(=O)(=O)c1ccc(C(=O)O)c(N)c1
Reply: 1.02

Query: What is its growth AUC for Bacteroides dorei? Entry: CCOC(=O)C1=NOC(c2ccccc2)(c2ccccc2)C1
Reply: 0.995

Query: What is its growth AUC for Bacteroides dorei? Entry: CCc1nc2ncnn2c(N)c1CCCC(=O)O.Cl
Reply: 1

Query: What is its growth AUC for Bacteroides dorei? Entry: NC(=S)Nc1cccc2ccccc12
Reply: 0.835

Query: What is its growth AUC for Bacteroides dorei? Entry: CNC(=O)/C(=N/OC)c1ccccc1COc1cc(C)ccc1C
Reply: 1.01

Query: What is its growth AUC for Bacteroides dorei? Entry: Cc1ccc2c(c1)[C@H](Nc1nc(N)nc(C(C)F)n1)[C@@H](C)C2 (some centres not stated)
Reply: 0.989

Query: What is its growth AUC for Bacteroides dorei? Entry: CCc1cccc(C)c1N(C(=O)CS(=O)(=O)[O-])C(C)COC.[Na+] (configuration not stated)
Reply: 0.91

Query: What is its growth AUC for Bacteroides dorei? Entry: CCOC(=O)C1=NN(c2ccc(Cl)cc2Cl)C(C)(C(=O)OCC)C1 (configuration not stated)
Reply: 1.02

Query: What is its growth AUC for Bacteroides dorei? Entry: CCOC(=O)C(C)N(C(=O)c1ccccc1)c1ccc(Cl)c(Cl)c1 (configuration not stated)
Reply: 0.963

Query: What is its growth AUC for Bacteroides dorei? Entry: CCc1cccc(C)c1NC(=O)C(=O)O
Reply: 1

Query: What is its growth AUC for Bacteroides dorei? Entry: Cc1c(Br)c2ccc(F)cc2n1S(=O)(=O)c1ncn(S(=O)(=O)N(C)C)n1
Reply: 1.01

Query: What is its growth AUC for Bacteroides dorei? Entry: Cc1cc(C)cc(OCC(C)Nc2nc(N)nc(C(C)(C)F)n2)c1 (configuration not stated)
Reply: 0.978

Query: What is its growth AUC for Bacteroides dorei? Entry: Cc1cccc(C)c1O
Reply: 1.01

Query: What is its growth AUC for Bacteroides dorei? Entry: O=C(O)COc1ccc(Cl)cc1CO
Reply: 0.721

Query: What is its growth AUC for Bacteroides dorei? Entry: CC(C)NS(=O)(=O)NC(=O)c1cc(-n2c(=O)cc(C(F)(F)F)[nH]c2=O)c(F)cc1Cl
Reply: 1.01

Query: What is its growth AUC for Bacteroides dorei? Entry: O=C1NCC[n+]2ccccc21.[Br-]
Reply: 0.761

Query: What is its growth AUC for Bacteroides dorei? Entry: CCCCCCCC/C=C\CCCCCCCCCCCCC
Reply: 1.05

Query: What is its growth AUC for Bacteroides dorei? Entry: CCc1cc(C(=O)O)cc(CC)c1C1C(=O)N2CCOCCN2C1=O
Reply: 1.05

Query: What is its growth AUC for Bacteroides dorei? Entry: N[C@@H](Cc1cc(I)c(Oc2cc(I)c(O)c(I)c2)c(I)c1)C(=O)O
Reply: 1.04

Query: What is its growth AUC for Bacteroides dorei? Entry: N#Cc1cc(Cl)c(O)c(Cl)c1
Reply: 0.982

Query: What is its growth AUC for Bacteroides dorei? Entry: O=C(NC(=O)c1c(F)cccc1F)Nc1cc(C(F)(F)F)cc(C(F)(F)F)c1Cl
Reply: 0.982

Query: What is its growth AUC for Bacteroides dorei? Entry: CCCCCCCCCC[N+](C)(C)Cc1ccccc1.[Cl-]
Reply: 0.979

Query: What is its growth AUC for Bacteroides dorei? Entry: CC(C)N(C(=O)C(=O)O)c1ccc(F)cc1
Reply: 1.02

Query: What is its growth AUC for Bacteroides dorei? Entry: CC(C)(C)C(=O)C(Oc1ccc(Cl)cc1)n1ccnc1 (configuration not stated)
Reply: 0.98

Query: What is its growth AUC for Bacteroides dorei? Entry: Nc1cc(Cl)nc(C(=O)O)c1Cl
Reply: 0.971

Query: What is its growth AUC for Bacteroides dorei? Entry: CC(C)(NC(=O)C(Br)C(C)(C)C)c1ccccc1 (configuration not stated)
Reply: 0.995

Query: What is its growth AUC for Bacteroides dorei? Entry: CSc1nnc(C(C)(C)C)c(=O)n1/N=C/C(C)C
Reply: 1.02

Query: What is its growth AUC for Bacteroides dorei? Entry: CCCCOC(=O)COc1ccc(Cl)cc1Cl
Reply: 0.996

---

For each record, write down the corresponding growth AUC.
# System: Clostridium difficile
# PROTOCOL DETAILS: growth AUC relative to DMSO control (median of replicates) (fraction); higher = more growth (less inhibition), active = hit call of the paper
# APPLIED CONDITIONS: 20 µM; 24 h
When you answer, write just the number.

Query: So what's the measured growth AUC for this one? CCCCCCCC/C=C\CCCCCCCCCCCC(=O)O
Reply: 1

Query: So what's the measured growth AUC for this one? O=C(O)COc1ccc(Cl)cc1CO
Reply: 1.03

Query: So what's the measured growth AUC for this one? Nc1cc(Cl)nc(C(=O)O)c1Cl
Reply: 0.952

Query: So what's the measured growth AUC for this one? C#CCOc1cc(-n2nc(C(C)(C)C)oc2=O)c(Cl)cc1Cl
Reply: 0.862

Query: So what's the measured growth AUC for this one? CN(C)C(=O)SCCCCOc1ccccc1
Reply: 0.983

Query: So what's the measured growth AUC for this one? CC(C)(NC(=O)NCc1ccccc1Cl)c1ccccc1
Reply: 1.01

Query: So what's the measured growth AUC for this one? O=C(Nc1ccc(F)cc1)c1cccc(Oc2cccc(C(F)(F)F)c2)n1
Reply: 0.934

Query: So what's the measured growth AUC for this one? Cc1ccc(C)c(O)c1
Reply: 1.01

Query: So what's the measured growth AUC for this one? N#Cc1ccc(CC(=NNC(=O)Nc2ccc(OC(F)(F)F)cc2)c2cccc(C(F)(F)F)c2)cc1 (mixture of isomers)
Reply: 1.01

Query: So what's the measured growth AUC for this one? CCOC(=O)c1ccc(O)cc1
Reply: 1.01

Query: So what's the measured growth AUC for this one? CC(C)N(C(=O)CS(=O)(=O)[O-])c1ccccc1.[Na+]
Reply: 1.06

Query: So what's the measured growth AUC for this one? CC(C)OC(=O)[C@@H](C)N(C(=O)c1ccccc1)c1ccc(F)c(Cl)c1
Reply: 0.978

Query: So what's the measured growth AUC for this one? CCNC(=O)[C@@H](C)OC(=O)Nc1ccccc1
Reply: 1.03

Query: So what's the measured growth AUC for this one? CC(C)C1C2CCC1c1c(NC(=O)c3cn(C)nc3C(F)F)cccc12 (configuration not stated)
Reply: 0.962

Query: So what's the measured growth AUC for this one? CC(C)(NC(=O)C(Br)C(C)(C)C)c1ccccc1 (configuration not stated)
Reply: 1.01

Query: So what's the measured growth AUC for this one? CCCOC(=O)NCCCN(C)C
Reply: 0.987

Query: So what's the measured growth AUC for this one? O=C(O)COc1cc(N2C(=O)C3=C(CCCC3)C2=O)c(F)cc1Cl
Reply: 1.02

Query: So what's the measured growth AUC for this one? CCCCC(CC)CN1C(=O)C2C(C1=O)[C@H]1C=C[C@@H]2C1 (mixture of isomers)
Reply: 1.03

Query: So what's the measured growth AUC for this one? Oc1ccc2ccccc2c1N=Nc1ccccc1
Reply: 0.991

Query: So what's the measured growth AUC for this one? CCSC(=O)N(CC)CC
Reply: 0.982

Query: So what's the measured growth AUC for this one? CC(C)(c1ccc(O)cc1)c1ccc(O)cc1
Reply: 1.08

Query: So what's the measured growth AUC for this one? CC(=O)CC(c1ccccc1)c1c(O)c2ccccc2oc1=O (configuration not stated)
Reply: 0.998

Query: So what's the measured growth AUC for this one? COC(=O)c1ccc(CNS(C)(=O)=O)cc1S(=O)(=O)NC(=O)Nc1nc(OC)cc(OC)n1
Reply: 1.02

Query: So what's the measured growth AUC for this one? CCOC(=O)C1CC(=O)C(=C(O)C2CC2)C(=O)C1 (configuration not stated)
Reply: 1.01

Query: So what's the measured growth AUC for this one? COc1cc(OC)c(Cl)cc1N
Reply: 1.01

Query: So what's the measured growth AUC for this one? O=C(Nc1ccc(O)cc1-c1ccc(Cl)cc1)c1cccnc1Cl
Reply: 1.03

Query: So what's the measured growth AUC for this one? CCc1cccc(CC)c1N(COC)C(=O)C(=O)O
Reply: 1.02

Query: So what's the measured growth AUC for this one? Cl.NCCO/C=C/[C@H](N)C(=O)O
Reply: 1.02

Query: So what's the measured growth AUC for this one? S=C([S-])NCCNC(=S)[S-].[Mn+2]
Reply: 0.977

Query: So what's the measured growth AUC for this one? Cn1cc(C(=O)Nc2ccccc2-c2cc(F)c(F)c(F)c2)c(C(F)F)n1
Reply: 0.98

Query: So what's the measured growth AUC for this one? NC(=O)c1nn(-c2c(Cl)cc(C(F)(F)F)cc2Cl)c(N)c1S(=O)C(F)(F)F (configuration not stated)
Reply: 1

Query: So what's the measured growth AUC for this one? CCN(Cc1c(F)cccc1Cl)c1c([N+](=O)[O-])cc(C(F)(F)F)cc1[N+](=O)[O-]
Reply: 0.99

Query: So what's the measured growth AUC for this one? CC(C)N(C(=O)C(=O)O)c1ccc(F)cc1
Reply: 1.03

Query: So what's the measured growth AUC for this one? CCCCCCCCCC[N+](C)(C)Cc1ccccc1.[Cl-]
Reply: 0.921

Query: So what's the measured growth AUC for this one? C[S+](C)CCC(=O)O.[Cl-]
Reply: 1.01

Query: So what's the measured growth AUC for this one? COc1ccc(Oc2ccc(NC(=O)N(C)C)cc2)cc1
Reply: 0.99

Query: So what's the measured growth AUC for this one? CP(=O)(O)CCC(=O)O
Reply: 1.04

Query: So what's the measured growth AUC for this one? CNC(=O)Sc1ccc(OS(C)(=O)=O)cc1
Reply: 0.96

Query: So what's the measured growth AUC for this one? CCCCOC(=O)[C@@H](C)Oc1ccc(Oc2ccc(C(F)(F)F)cn2)cc1
Reply: 0.989

Query: So what's the measured growth AUC for this one? CCCCCCCC/C=C\CCCCCCCC(N)=O
Reply: 1.01

Query: So what's the measured growth AUC for this one? N#Cc1c(N)nc(NC2CC2)nc1N
Reply: 1.06

Query: So what's the measured growth AUC for this one? CCCCOCCOCCOCc1cc2c(cc1CCC)OCO2
Reply: 1.03

Query: So what's the measured growth AUC for this one? CN(C(=O)NC(C)(C)c1ccccc1)c1ccccc1
Reply: 1.04

Query: So what's the measured growth AUC for this one? CCOC(=O)C1=NN(c2ccc(Cl)cc2Cl)C(C)(C(=O)OCC)C1 (configuration not stated)
Reply: 1.03

Query: So what's the measured growth AUC for this one? c1ccc(Sc2ccccc2)cc1
Reply: 1.02

Query: So what's the measured growth AUC for this one? c1ccc(CNc2ncnc3nc[nH]c23)cc1
Reply: 0.932

Query: So what's the measured growth AUC for this one? COC(=O)CC(NC(=O)[C@@H](NC(=O)OC(C)C)C(C)C)c1ccc(Cl)cc1 (some centres not stated)
Reply: 1.01
